test system: PPARg:RXRa DBDmut IVT, anti-RXR (DBD mutation: RXRa K156A/R161A, NR concentration 270 nM, RXRa partner concentration 90 nM); assay: PBM binding z-score (relative to random genomic background probes); higher = stronger binding; sequences stand for … in GC…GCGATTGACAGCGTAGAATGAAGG
// label = YES if PBM binding z-score is not less than 0.3, otherwise NO

Hi team, for ATCGACAGGTCGACGAGGTGAGTATACACCGTTT , is the recorded PBM binding z-score at or above 0.3?
NO

Hi team, for CGAACTAGGTCAGTACAGGACAGTGAAGGATGAT , is the recorded PBM binding z-score at or above 0.3?
YES

Hi team, for GCTATTAGTTGAAAGGGCAGCCGAATGATTCTCG , is the recorded PBM binding z-score at or above 0.3?
YES

Hi team, for CCTAGCCGGCCAGGGTCACTCAAGCATTTCGCTT , is the recorded PBM binding z-score at or above 0.3?
NO

Hi team, for CGTCCAAGCTCAAGGTCAGTGAAAGAGACTCGAA , is the recorded PBM binding z-score at or above 0.3?
NO

Hi team, for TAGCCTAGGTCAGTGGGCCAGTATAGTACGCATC , is the recorded PBM binding z-score at or above 0.3?
YES

* * *

Please respond with reported PBM binding z-score for every item in the list.
system: RXRa DBDmut IVT, anti-RXR (DBD mutation: RXRa K156A/R161A, NR concentration 90 nM); assay: PBM binding z-score (relative to random genomic background probes); higher = stronger binding; sequences stand for … in GC…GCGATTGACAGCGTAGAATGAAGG
Lab note: jot down the number only; don't add units.

Name the recorded PBM binding z-score of the sequence listed here: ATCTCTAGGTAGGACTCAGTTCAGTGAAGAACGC
0.747

Name the recorded PBM binding z-score of the sequence listed here: ACAGACAGGTGAGTGAAGGTAACTCAGCTGGACG
-0.506

Name the recorded PBM binding z-score of the sequence listed here: CTCGAAAGGTCGGGCTCAGGTGAGTATACCAAAC
0.869

Name the recorded PBM binding z-score of the sequence listed here: CAAACTAGGTCACACAGGTCAAAGTCCGTGCGTA
2.27

Name the recorded PBM binding z-score of the sequence listed here: CCTACTGGGCCAACGTCATTGATCAGTCAAAGCA
-0.651

Name the recorded PBM binding z-score of the sequence listed here: GGCACGAGGGCAAAGTTGATAGCATCTGTCGACG
2.39

* * *

test system: PPARa:RXRa (NR concentration 270 nM, RXRa partner concentration 90 nM); assay: PBM binding z-score (relative to random genomic background probes); higher = stronger binding; sequences stand for … in GC…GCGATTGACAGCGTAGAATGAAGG
// label = met if PBM binding z-score is not less than 4, otherwise not met

Hi team, for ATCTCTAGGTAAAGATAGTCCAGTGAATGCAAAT , is the recorded PBM binding z-score at or above 4?
not met

Hi team, for AGAATGAGGTTATACGTAGATCAGGGAAGAAAGT , is the recorded PBM binding z-score at or above 4?
not met

Hi team, for ACTAGCAGACCAAGTTTGGGTCACTCAAACAAAG , is the recorded PBM binding z-score at or above 4?
not met

Hi team, for CGAACTAGGTCAAGGACAGTGACTCTCCGCACGC , is the recorded PBM binding z-score at or above 4?
met

Hi team, for TAGCCTAGGTCATGCGGGCCATTATAGTGTCGGC , is the recorded PBM binding z-score at or above 4?
not met

Hi team, for CCTTACGGGTCACTCCCGGTTATAGCATCGGAGT , is the recorded PBM binding z-score at or above 4?
met

Hi team, for CGTCCAAGGTCATAGGAGGTCAGTGTAGACAGAT , is the recorded PBM binding z-score at or above 4?
met

Hi team, for CCTAGTTGGGCAAGGTCACACACGCTATAGGTAC , is the recorded PBM binding z-score at or above 4?
not met

Hi team, for TCAGACTGGTGAAGGTAACTCAGGTACGCAGTCG , is the recorded PBM binding z-score at or above 4?
not met

Hi team, for GCTATTAGTTCAAAGGGCAACCGAATGATTCTCG , is the recorded PBM binding z-score at or above 4?
not met

Hi team, for TCATATAGGTAAAGGTGAAAGTGGAACGATATGA , is the recorded PBM binding z-score at or above 4?
not met

Hi team, for CCTCGGAGGACAACAGGAGGTCAGGGCTGCCAGA , is the recorded PBM binding z-score at or above 4?
not met

Hi team, for CTACCAAGGTGACCAAGGTCGTTGATTACTATTC , is the recorded PBM binding z-score at or above 4?
not met

Hi team, for TGAATGAGGTTATAAGATCTGGGAACGTTGCAAA , is the recorded PBM binding z-score at or above 4?
not met

Hi team, for TATATTAGTTGAAGGGCAACCGACGAGTCCGTTT , is the recorded PBM binding z-score at or above 4?
not met

Hi team, for GATACAGGGTCAGCTAGAGGCCAGGGTATGGAAA , is the recorded PBM binding z-score at or above 4?
met

Hi team, for ACTATTAGTTGAGACGATGGCAACCGATAGGTTG , is the recorded PBM binding z-score at or above 4?
not met

Hi team, for CGTCCAAGGTCAAGGTCGGTGAAAGAGACTCGAA , is the recorded PBM binding z-score at or above 4?
met

Hi team, for CCTAGCAGGCCAATCTGGGTCCCTCAAGGCTTGA , is the recorded PBM binding z-score at or above 4?
not met

Hi team, for AGAATGAGTTTATACGTAGATCAGGGAAGAAAGT , is the recorded PBM binding z-score at or above 4?
not met

Hi team, for GAACCAAGGTGAATAGGTCGTTGATGAGTAGGCG , is the recorded PBM binding z-score at or above 4?
not met

Hi team, for CCGACTGGGGCAAAGGTTCCCATACTCAGTACGA , is the recorded PBM binding z-score at or above 4?
not met

Hi team, for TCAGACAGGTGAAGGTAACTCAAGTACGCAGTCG , is the recorded PBM binding z-score at or above 4?
not met

Hi team, for CCTACTGGGCCATTCCGAGGTCATTGATCATATG , is the recorded PBM binding z-score at or above 4?
not met

Hi team, for ATACCGAGGTGATCGTGAGGTCGTTGATACTAAC , is the recorded PBM binding z-score at or above 4?
not met

* * *

test system: LXRa homodimer (NR concentration 270 nM); test: PBM binding z-score (relative to random genomic background probes); higher = stronger binding; sequences stand for … in GC…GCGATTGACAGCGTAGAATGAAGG
// label = Condition met if PBM binding z-score is not less than 0.3, otherwise Condition not met

Hi team, for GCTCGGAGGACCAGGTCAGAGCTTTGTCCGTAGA , is the recorded PBM binding z-score at or above 0.3?
Condition not met

Hi team, for AATACAGGGTCACTCGGCCAGAGTAGGTACGAAT , is the recorded PBM binding z-score at or above 0.3?
Condition met

Hi team, for CCTACTGGGCCAAGGTCAATGATCAGTCAAAGCA , is the recorded PBM binding z-score at or above 0.3?
Condition met

Hi team, for CCTCTGAGGACAACAGGAGGTCAGAGCTGCCAGA , is the recorded PBM binding z-score at or above 0.3?
Condition met

Hi team, for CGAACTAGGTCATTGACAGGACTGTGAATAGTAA , is the recorded PBM binding z-score at or above 0.3?
Condition not met

Hi team, for CCTCGGAGGACAACAGGAGGTCAGAGCCGCCAGA , is the recorded PBM binding z-score at or above 0.3?
Condition met

Hi team, for CTCGAAAGGTCGGTTGAGGTGAGTACACGGATAA , is the recorded PBM binding z-score at or above 0.3?
Condition not met

Hi team, for TAGCCTAGGTCATGGGCCAGTCTACCACGCGAAC , is the recorded PBM binding z-score at or above 0.3?
Condition not met

Hi team, for TCTAGTTGGTCACGGAGGTGACACACGACGGGTA , is the recorded PBM binding z-score at or above 0.3?
Condition not met

Hi team, for CGTCACAGTTCAACTAAGGTAACGTAAAGCACGC , is the recorded PBM binding z-score at or above 0.3?
Condition met

Hi team, for TATACAGGGTCAAAAGCCAGAGTACGAATGTCGA , is the recorded PBM binding z-score at or above 0.3?
Condition met
